test: The drug is tested on Enterococcus faecalis strain: ATCC29212 for biotransformation under microaerobic condition. The drug concentrations were measured over 6 timepoints collected between 0 and 12 hours of incubation by liquid-chromatography-coupled mass spectrometry (LC–MS); type: ADME; parameters: dose 5 uM, timepoint 0, 1.5, 3, 6, 9, 12 hours; details: 5 µM

>  <molecule>
COc1ccc([C@@H]2Sc3ccccc3N(CCN(C)C)C(=O)[C@@H]2OC(C)=O)cc1

>  <Bacterial Biotransformation>
Compound NOT metabolized

$$$$
>  <molecule>
C[C@H]1C[C@H]2[C@@H]3CCC4=CC(=O)C=C[C@]4(C)[C@@]3(F)[C@@H](O)C[C@]2(C)[C@@]1(O)C(=O)CO

>  <Bacterial Biotransformation>
Compound NOT metabolized

$$$$
>  <molecule>
C[C@H]1C[C@@H]2[C@H]([C@@H](O)C[C@@]3(C)[C@H]2CC[C@]3(O)C(=O)CO)[C@@]2(C)C=CC(=O)C=C12

>  <Bacterial Biotransformation>
Compound NOT metabolized

$$$$
>  <molecule>
CO[C@H]1C[C@@H]2CC[C@@H](C)[C@@](O)(O2)C(=O)C(=O)N2CCCC[C@H]2C(=O)O[C@H]([C@H](C)C[C@@H]2CC[C@@H](O)[C@H](OC)C2)CC(=O)[C@H](C)/C=C(\C)[C@@H](O)[C@@H](OC)C(=O)[C@H](C)C[C@H](C)/C=C/C=C/C=C/1C

>  <Bacterial Biotransformation>
Compound metabolized

$$$$
>  <molecule>
C[C@]12C=CC(=O)C=C1CC[C@@H]1[C@@H]2[C@@H](O)C[C@@]2(C)[C@H]1CC[C@]2(O)C(=O)CO

>  <Bacterial Biotransformation>
Compound NOT metabolized

$$$$
>  <molecule>
CCOC(=O)C1=C(COCCN)NC(C)=C(C(=O)OC)C1c1ccccc1Cl (stereo unspecified)

>  <Bacterial Biotransformation>
Compound metabolized

$$$$

====

test: The drug is tested on the gut metagenome community of A-03 with ENA study accession number: PRJEB31790 for biotransformation under microaerobic condition. The drug concentrations were measured over 7 timepoints collected between 0 and 12 hours of incubation by liquid-chromatography-coupled mass spectrometry (LC–MS); type: ADME; parameters: dose 5 uM, timepoint 0, 0.75, 1.5, 3, 6, 9, 12 hours; details: 5 µM

>  <molecule>
CO[C@H]1C[C@@H]2CC[C@@H](C)[C@@](O)(O2)C(=O)C(=O)N2CCCC[C@H]2C(=O)O[C@H]([C@H](C)C[C@@H]2CC[C@@H](OCCO)[C@H](OC)C2)CC(=O)[C@H](C)/C=C(\C)[C@@H](O)[C@@H](OC)C(=O)[C@H](C)C[C@H](C)/C=C/C=C/C=C/1C [EVEROLIMUS]

>  <Bacterial Biotransformation>
Compound metabolized

$$$$
>  <molecule>
COc1c(C)c2c(c(O)c1C/C=C(\C)CCC(=O)OCCN1CCOCC1)C(=O)OC2 [MYCOPHENOLATE MOFETIL]

>  <Bacterial Biotransformation>
Compound metabolized

$$$$

====

assay: The drug is tested on Clostridium scindens strain: DSM5676 for biotransformation under anaerobic condition. The drug concentrations were measured over 6 timepoints collected between 0 and 12 hours of incubation by liquid-chromatography-coupled mass spectrometry (LC–MS); format: ADME; parameters: dose 5 uM, timepoint 0, 1.5, 3, 6, 9, 12 hours; conditions: 5 µM
endpoint: Bacterial Biotransformation

>  <molecule>
C[C@]12CCC(=O)C=C1CC[C@@H]1[C@@H]2[C@@H](O)C[C@@]2(C)[C@H]1CC[C@]2(O)C(=O)CO [HYDROCORTISONE]

>  <obs.value>
Compound metabolized

$$$$
>  <molecule>
C=CC[C@@H]1/C=C(\C)C[C@H](C)C[C@H](OC)[C@H]2O[C@@](O)(C(=O)C(=O)N3CCCC[C@H]3C(=O)O[C@H](/C(C)=C/[C@@H]3CC[C@@H](O)[C@H](OC)C3)[C@H](C)[C@@H](O)CC1=O)[C@H](C)C[C@@H]2OC.O

>  <obs.value>
Compound metabolized

$$$$
>  <molecule>
C[C@]12C=CC(=O)C=C1CC[C@@H]1[C@@H]2[C@@H](O)C[C@@]2(C)[C@H]1CC[C@]2(O)C(=O)CO

>  <obs.value>
Compound metabolized

$$$$

Values from ChEMBL document CHEMBL5724806
